Entries annotated with measured pIC50
Target under test: Kynurenine--oxoglutarate transaminase 1 (Homo sapiens, UniProt Q16773)
Sequence (Q16773 whole entry): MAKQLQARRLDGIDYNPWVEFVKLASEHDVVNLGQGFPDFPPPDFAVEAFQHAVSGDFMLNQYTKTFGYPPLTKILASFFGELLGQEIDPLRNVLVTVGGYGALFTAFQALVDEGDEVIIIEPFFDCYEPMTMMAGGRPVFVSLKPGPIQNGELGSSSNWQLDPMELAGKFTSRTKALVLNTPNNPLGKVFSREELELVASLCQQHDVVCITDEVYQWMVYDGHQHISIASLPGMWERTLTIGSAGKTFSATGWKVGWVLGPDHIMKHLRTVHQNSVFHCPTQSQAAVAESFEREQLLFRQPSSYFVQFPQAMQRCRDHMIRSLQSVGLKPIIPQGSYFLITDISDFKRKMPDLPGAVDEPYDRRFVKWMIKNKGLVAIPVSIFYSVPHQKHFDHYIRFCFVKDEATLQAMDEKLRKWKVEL
Experiment description: Inhibition of human recombinant KAT1 expressed in Sf9 cells
pIC50 field: float, defined as -log10 of concentration (mol/L).

[[record]]
compound = "O=C(O)CCc1c[nH]c2ccccc12"
recorded_result = 3.85


// query Indicate the recorded pIC50 value for this compound: O=C(O)C(O)Cc1c[nH]c2ccccc12 (racemic)
// result 3.66
